# TEST TARGET: T1, RC3H2 RNA-binding region (HEPN+ROQ), wild type (Homo sapiens, UniProt Q9HBD1 87-404)
# T1 sequence: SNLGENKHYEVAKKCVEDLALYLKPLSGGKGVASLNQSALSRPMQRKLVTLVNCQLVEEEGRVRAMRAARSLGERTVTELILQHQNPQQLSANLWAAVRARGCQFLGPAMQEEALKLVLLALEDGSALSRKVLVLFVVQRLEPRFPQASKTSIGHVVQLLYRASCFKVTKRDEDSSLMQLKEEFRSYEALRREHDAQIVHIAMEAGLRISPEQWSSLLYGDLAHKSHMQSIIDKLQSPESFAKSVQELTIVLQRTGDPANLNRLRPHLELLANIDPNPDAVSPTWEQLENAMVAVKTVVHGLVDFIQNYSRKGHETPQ
# ASSAY EXPLANATION: ITC; ITC: 20 mM Tris-HCl pH 8.0, 150 mM NaCl, 1 mM TCEP, 25 C; 200-500 uM RNA injected into 15-30 uM protein, one-site model
# PARTICULARS: protein: recombinant; tags: His6-tag (pET28-MHL N-terminal TEV-cleavable, or pNIC-CH C-terminal uncleavable); removed by TEV where applicable; mixture of hairpin and self-duplex in solution
pKd: −log10 of the molar value.
ATTRIBUTE MEASURED: pKd

| BINDER | RECORDED NUMBER |
| --- | --- |
| ACAUGUUUUCUGUGAAAACGGAG (structured_RNA) [Tnf23 CDE RNA, 23-nt] | 6.84 |
